Numbers sourced from ChEMBL document CHEMBL6074644.

measurement-protocol: Therapeutic index, ratio of LD50 for toxicity in iv dosed Kunming mouse assessed as lethal dose to ED50 for anesthetic activity in iv dosed Kunming mouse
Type: organism-based
applied-conditions: in vivo, read-out: Ratio LD50/ED50
Measured selectivity ratio by item
API note: the answer field is a bare number with no unit suffix.

Examples with answers:
compound: CC1CCN(CCC(=O)Oc2c(C(C)C)cccc2C(C)C)CC1.Cl
value-reported: 4.2

compound: CC1CCCN(CCC(=O)Oc2c(C(C)C)cccc2C(C)C)C1.Cl (stereo unspecified)
value-reported: 4.1

compound: CCN(CC)CC(=O)OCCCC(=O)Oc1c(C(C)C)cccc1C(C)C.Cl
value-reported: 4.8

compound: CC(C)c1cccc(C(C)C)c1OC(=O)CCCOC(=O)CCCN1CCCCC1C.Cl (stereo unspecified)
value-reported: 5.2

compound: CC1CCN(CC(=O)Oc2c(C(C)C)cccc2C(C)C)CC1.Cl
value-reported: 1.6

compound: CCN1CCN(CCC(=O)Oc2c(C(C)C)cccc2C(C)C)CC1.Cl
value-reported: 3.2

compound: CC1CCN(CC(=O)OCCCC(=O)Oc2c(C(C)C)cccc2C(C)C)CC1.Cl
value-reported: 4.8

compound: CC(C)c1cccc(C(C)C)c1OC(=O)CCCOC(=O)CCCN1CCCCC1.Cl
value-reported: 5.1

Lab note: CC(C)c1cccc(C(C)C)c1OC(=O)CCCOC(=O)CCCN1CCOCC1.Cl gave selectivity ratio of 4.9

Lab note: CCN(CC)CCC(=O)Oc1c(C(C)C)cccc1C(C)C.Cl gave selectivity ratio of 3.5

Lab note: CC(C)c1cccc(C(C)C)c1O gave selectivity ratio of 2.7
